All figures here come from the nanobody polyreactivity screen of Harvey et al. (2022).

- experimentNotes: yeast display, Sf9 membrane polyspecificity reagent, FACS + sequencing; frameworks hold sequencing errors

# sequenceCode, polyreactivity (PSR sort gate)
data = [
    ("QVQLVESGGGLVQAGGSLRLSCAASGSTFTLYAMGWYRQAPGKERELVAAISWSSGSTYYADSVKGRFTISRDNAKNTVYLQMNSLKPEDTAVYYCNARRFGLTQYYYWGQGTQVTVSS", "low polyreactivity"),
    ("QVQLVESGGGLVQAGGSLRLSCAASGFTFYRYVMGWYRQAPGTERELVAAITGGGRTYYADSVKGRFTISRDNAKNTVYLQMNSLKPEDTAVYYCNKAVPAWGLFDYWGQGTQVTVSS", "low polyreactivity"),
    ("QVQLVESGGGLVQAGGSLRLSCAASGSTFPSYAMGWYRQAPGKERELVAAITNGGSTTYADSVKGRFTISRDNAKNTVYLQMNSLKPDDTAVYYCAARYYYYYYYIRRDYWGQGTQVTVSS", "low polyreactivity"),
]

---

- experimentNotes: yeast display, Sf9 membrane polyspecificity reagent, FACS + sequencing; frameworks hold sequencing errors
propertyMeasured: polyreactivity (PSR sort gate)

# sequenceCode, polyreactivity (PSR sort gate)
rows = [
    ("QVQLVESGGGLVQAGGSLRLSCAASGLIIWLYTMGWYRQAPGKERELVAAIDWSGGSTYYADSVKGRFTISRDNAKNTVYLQMNSLKPEDTAVYYCAADPEPSYRFDYWGQGTQVTVSS", "low polyreactivity"),
    ("KGQHVESGGGLVQAGGRLRLSCAASGSIFRYNAMGWDRQAPGKEREFVAAISWSGGRTFYADSVKGRFTISRDNAKNTVYLQMNSLKPEDTAVYYCAARSSRTTRQGYDYWGHGTQVTVSS", "high polyreactivity"),
    ("QFQLVESGRGLVQAGGSLRLSCAASGSTFSANAMGWYRQAPGKERELVAAISRSGTRTYYADSVKGRFTISRDNAKNTVYLQMNSLKPEDTAVYYCAAYVYQYGYDYWGQGTQVTVSS", "high polyreactivity"),
    ("QVQLVESGGRLVQAGGSLRLSCAASGLIIDYYTMGWYRQAPGKERELVAAINKSGGSTYADSVKGRFTISRDNAKNTVYLQMNCLKPEDSAVYYCAAEVDYSYWPEYSRKYYYWGEGTQVTVSS", "low polyreactivity"),
]

Quick note, polyreactivity (PSR sort gate) for QGQRVESGGGLVQAGGSLRLSCAASGFIFWDYDMVWYRQAPGKEREMVAAISDSGGDTYYADSVKGRFTISRDNSKNTVYLQMHSLKREDTAVIYCAADVELWVFRGQQFDYWGQGTQVTVSS landed at low polyreactivity

Quick note, polyreactivity (PSR sort gate) for QVQLVESGGGLVQAGGSLRLSCAASGFIFYPYAMGWYRQATGKETELVAAITWSGGTTTYADSEKGRFTISRDNAKNTVYLQMNSLKPEDTAVYSCAALWYYGRYPYDYWGQGTQVTVSS landed at high polyreactivity

---

- experimentNotes: yeast display, Sf9 membrane polyspecificity reagent, FACS + sequencing; frameworks hold sequencing errors
propertyMeasured: polyreactivity (PSR sort gate)

Please review the following examples before continuing.
# sequenceCode, polyreactivity (PSR sort gate)
records = [
    ("QVQLVESGGGLVQAGGSLRFSCADSGFTFRTYAMGWYIQAPGKERELVATIRRAGSTYYADSVKGRFTISRDNAKNTVYLQMNSLKPEDTAVYYCAATHYSFSWGYDYWGQGTQVTVSS", "high polyreactivity"),
    ("QVQLVESGGGLVQAGGSLRLSCAASGSTFGRNAMGWYRQAPGKERELVAAISRSGGSTYYADSVKGRFTISRDNAKNTVYLQMNRLKPEDTAVYYCAAAVSPGGVYGNRYYYWGQGTQVTVSS", "high polyreactivity"),
    ("QVQLVESGGGLVQAGGSLRLSCAASGRTFWYYAMGWYRQAPGKERELVAAISRNGGSTYYEDSVKGRFTISRDNAKNTVYLQMNSLKPEDTAVYYCAADGWYTRKYDYWGQGTQVTVSS", "high polyreactivity"),
    ("QVQLVESGGGLVQAGGSLRLSCAASGYIFKYNTMGWYRQAPGKERELVAAISTGGNTYYADSVKGRFTISRDNAKNTVYLQMNSLKPEDTAVYYCAALSGAHEHFVEYDYWGQGTQVTVSS", "low polyreactivity"),
    ("QVQLVESGGGLVQAGGSLRLSCAASGIIFHRNDMGWYRQAPGKERELVANIRDGGITYADSVKGRFTISRDKAKNTVYLQMNSLKPEDTAVYYCARDDTSPGYGDQSSNAAYYYWGQGTQVTVSS", "low polyreactivity"),
]

Field: next sequence
Quick note, polyreactivity (PSR sort gate) for QVQLQESGGGLVQASGSIFHEPNMGWYRQAPGKERELVAGISSGANTYYADSVKGRFTISRDNAKNTVYLQMNSVKPEDTAVYHCAVVVHLYTDLRNWGQDTQVTVSS landed at high polyreactivity

---

- experimentNotes: yeast display, Sf9 membrane polyspecificity reagent, FACS + sequencing; frameworks hold sequencing errors
propertyMeasured: polyreactivity (PSR sort gate)

# sequenceCode, polyreactivity (PSR sort gate)
measured = [
    ("QVQLVESGGGLVQAGGSLRLSCAASGRTFTSYVMGWYRQAPGKERELVAAISWSGDSTYYADSVKGRFTISRDNAKNTVYLQMNSLKPEDTAVDYCARVPPAAYVAYDYWGQGTQVTVSS", "high polyreactivity"),
    ("QVQLVESGGGLVQAGGSLRLSCAASGSIFYTYAMGWYRQAPGKEREFVASITYRGSNTYYADSVKGRFTISRDNAKNTVYLQMNSLKPEDTAVYYCAADSFYYRPEYDYWGQGTKVTVSS", "low polyreactivity"),
    ("QVQLVESGGGLVQARGSRRLTCAASGRTFSYYAMGWYLHEPGKERELVAAITSSGGRTTYADSVKGRFTISRDNAKNTVYLQMNSLKPEDTAVYYCNVVRWTLKYGYWGQGTQVTVSS", "high polyreactivity"),
    ("QVQLVESGGGLVQAGGSLRLSCAASGYIFAYTAMGWYRQAPGKEREFVAVITRSDDSTYADSVKGRFTISRDNAKNTVYLQMNSLKPEDTAVYYCAAQPFVIDGGYRGDYWGQGTQVTVSS", "low polyreactivity"),
]

Field: next sequence
Quick note, polyreactivity (PSR sort gate) for QVQLVESGGGLVQAGGSLRLSCSASGITFNANAMGWYRQATGKERELVAAISLSGGRTYYADSVKGRFTISRDNAKNTVYLQMNSLKPEDTAVYYCKVLGNYYGKFDYWGQGTQVTVSS landed at high polyreactivity

---

- experimentNotes: yeast display, Sf9 membrane polyspecificity reagent, FACS + sequencing; frameworks hold sequencing errors
propertyMeasured: polyreactivity (PSR sort gate)

Please review the following examples before continuing.
# sequenceCode, polyreactivity (PSR sort gate)
measured = [
    ("QVQLVESGGGLVQAGASLRLSCAASGITLDLYDMGWYRQAPGKERELVAAISRSGVRTYYADSVKWRFTISRDNAKNTVYFQMNSLKPEDTSVYYCNKGYARRYASGYDYWGQGTQVSVSS", "high polyreactivity"),
    ("QVQLVYSGGGLVQAGGSLRLSCAASGRTFARYAMGWYIQAPWKERELVAAITRSGGSTTYADSVKGLFTISRDNAKNTVYVQLYSLKPVYTAVYFCASSTSLRLDYWGQGTQVTVSS", "high polyreactivity"),
    ("QVQLVESGGCLVQAGGSLRLSCAASGSIFSGNAMGWYRQAPGKERELVAAISRSGGSKYYADSVKGRFTISRDNAKNTVYLQMNSLKPEDTAVYYFAAYRTHGPPRAIRFDYWGQGTQVTVSS", "high polyreactivity"),
    ("QVQLVESGGGLDQAGGSLRLSCADSGYILDRNAMGWYRHAPGKETALVAVISWGGTRTYYADSVKGRFTISRDNAKNTVYLQMISLKPEDTAVYYCARYPYYYGYAGRYDYWGQGTQVTVSS", "high polyreactivity"),
    ("QVQLVESGGGLVQAAGSLRLICAASGSIFTRYTMGWYRQAPGKERELVAVISDSSGRTYYADSVKGRFTISRDNAKNTVYLQMNSLKPEDTAVYYCAAEYSDIYEYWGQGTQVTVSS", "low polyreactivity"),
]

Quick note, polyreactivity (PSR sort gate) for HVQLVESGGGLVQAGGRLRLSCAASASIFDSNAMGWYRQAPGKERELVADIRGIGGSTYYADSVKGRFTISRDNAKNTVYLQMNSLKPEDTAVYYCNTSTLGGYYWGQGTQVTVSS landed at low polyreactivity

Quick note, polyreactivity (PSR sort gate) for QVQLVESGGGLVQAGGSLRLSCAASGRISGYYAMGWYRQAPGKEREFVAAITRSGGSTYYADSVKGRFTISRDNAKNTVYLQMNSLKPEDTAVYYCAADTRGFSYGNGYGYWGQGTQVTVSS landed at low polyreactivity

Quick note, polyreactivity (PSR sort gate) for QVQLVESGGGLVQAGGSLRLSCAASGSIFDVNAMGWYRQAPGKERELVAAISDSGGSTYYADSVKGRFTISRDNAKNTVYLQMNSLKPEDSAVYYCNADWSWYNYYDFDYWGQGTQVTVSS landed at low polyreactivity

Quick note, polyreactivity (PSR sort gate) for QVQLVESGGGLVQAGGSLRLSCAASGFSFQLYPMGWYRQAPWKERELVSAISQSGDSTYYADSVKGRFTISRDNAKNTVYLQMNSQKPEDNAVYYFNAVNDGVVWSYPFDFDYWGQGTQVTVSS landed at low polyreactivity

Quick note, polyreactivity (PSR sort gate) for QVQLVESGGGLVQAGGSLRLSCAASGIIFAGNAMGWYRQAPGKERELVAVITSGGSTYYADSVKGRFTISRDNAKNTVYLQMNSLKPEDTAVYYCNKVYYAYRVSLYRYGYWGQGTQVTVSS landed at high polyreactivity
